biological target: SHP2-C SH2; test: SH2 binding enrichment of the phosphorylated peptide, bacterial display (enrichment ratio); higher = better substrate or ligand; peptides without Tyr show the background;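 also: peptide library displayed on the E. coli surface as eCPX fusions, selected cells deep-sequenced, score is each peptide's frequency after selection divided by its frequency in the input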
Returns one of Y or N; Y when SH2 binding enrichment is >= 0.7.

LTSKPYAFTAW [NDUFS1_Y236_R241W] = Y

query: API: above_or_equal(metric=SH2 binding enrichment, cutoff=0.7) for item FRIGPYQPSVP [MATR3_Y784_N787S_YF]
result: Y

query: Same for QDRTFYESVRT [SPEN_Y633_YF]
result: Y

query: Same for RRGTGYTLSLP [MAGEC3_Y152]
result: N

query: Same for FQNGMYGLHQD [SGSH_Y89_H84Y_YF]
result: Y

query: Same for LEDPMYDIIRD [RP9_Y142_H137L]
result: N

query: Same for KSPGEYVNIEF [IRS1_Y896]
result: Y

query: Same for DVVKDYAFVHM [RBM14_Y114]
result: N

query: Same for FTTIHYNFMCN [TP53_Y234_C229Y_YF]
result: N

query: Same for EPVSDYINASI [PTPN11_Y304_N308S]
result: N

query: Same for QKTGDYFDLFG [PTPN11_Y62_N58K_YF]
result: Y

query: Same for EFFDGYWGFSV [ITGA2B_Y265_YF]
result: N

query: Same for RGRSTYYWPSP [GAGE12J_Y9_R13S]
result: N

query: Same for LFCLHYFHRTF [SRD5A2_Y91_V89L]
result: Y

query: Same for HFEFKYVINAI [MAOA_Y268_C266F_YF]
result: Y

query: Same for ALAHEYHGGGG [HBB_Y146_K145E]
result: N

query: Same for QQIFTYDSGIH [JUP_Y22_T19I_YF]
result: Y

query: Same for YPKVRYHWLVL [APTX_Y214_A212V]
result: Y
